- EXPERIMENTAL_TARGET: recombinant human MAO-B (Homo sapiens, UniProt P27338)
- Construct: purchased Sigma-Aldrich M7441; host or cells: baculovirus-infected insect cells
- Sequence (P27338 1-520): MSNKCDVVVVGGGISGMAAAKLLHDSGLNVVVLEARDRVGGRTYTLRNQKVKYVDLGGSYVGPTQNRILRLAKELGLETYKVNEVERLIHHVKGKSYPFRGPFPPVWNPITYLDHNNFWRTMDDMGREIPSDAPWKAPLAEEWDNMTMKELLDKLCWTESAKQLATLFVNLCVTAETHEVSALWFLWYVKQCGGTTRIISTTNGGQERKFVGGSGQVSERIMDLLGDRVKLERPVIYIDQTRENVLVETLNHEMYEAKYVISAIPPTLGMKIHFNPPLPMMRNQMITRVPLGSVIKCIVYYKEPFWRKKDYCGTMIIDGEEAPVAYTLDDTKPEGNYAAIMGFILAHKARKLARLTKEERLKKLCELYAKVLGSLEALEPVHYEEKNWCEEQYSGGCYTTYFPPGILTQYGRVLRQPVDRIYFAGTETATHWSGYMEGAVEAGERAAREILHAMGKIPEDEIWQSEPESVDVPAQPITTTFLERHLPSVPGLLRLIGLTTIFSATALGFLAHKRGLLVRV
- ASSAY_REMARKS: Monoamine oxidase assay (Amplex Red), MAO-B
- Type: biochemical
- SETTINGS: n = 3; read-out: IC50 ± SEM, Human MAO-B
- Protocol: The determination of MAO-A and MAO-B inhibition was performed using commercially available recombinant human MAO-A and MAO-B enzymes expressed in baculovirus-infected insects sells (Sigma-Aldrich, M7316 and M7441) applying the commercially available Amplex® Red monoamine oxidase assay kit (Invitrogen A12214). The assays were performed as previously described. The determination of rat MAO-B inhibition was performed using mitochondrial-enriched fractions from male Sprague Dawley rat livers. […]
pIC50: −log10 of the molar value.
QUANTITY_MEASURED: pIC50

> print(dat)
                                   molecule                       experimental.target  quantity.measured  value.reported
1  CCn1c(=O)c2c(nc3n2CCN(Cc2cc(Cl)cc(Cl)c2)C3)n(CC)c1=O [Compound 15m]  recombinant human MAO-B (Homo sapiens, UniProt P27338)              pIC50          > 5.00
2  C#CCn1c(=O)c2c(nc3n2CCN(c2cccc(OC)c2)C3)n(CC)c1=O [Compound 20c]  recombinant human MAO-B (Homo sapiens, UniProt P27338)              pIC50          ≥ 5.00
3  C#CCn1c(=O)c2c(nc3n2CCN(CCc2ccccc2)C3)n(CC)c1=O [Compound 20h]  recombinant human MAO-B (Homo sapiens, UniProt P27338)              pIC50          < 5.00
4  CCn1c(=O)c2c(nc3n2CCN(Cc2cccc(Cl)c2)C3)n(CC)c1=O [Compound 15c]  recombinant human MAO-B (Homo sapiens, UniProt P27338)              pIC50          ≤ 5.00
5  C#CCn1c(=O)c2c(nc3n2CCN(c2ccc(OC)c(OC)c2)C3)n(CC)c1=O [Compound 20d]  recombinant human MAO-B (Homo sapiens, UniProt P27338)              pIC50          < 5.00
